test.system: T1, LF-Biotin (B. anthracis, UniProt P15917 34-809)
T1 sequence: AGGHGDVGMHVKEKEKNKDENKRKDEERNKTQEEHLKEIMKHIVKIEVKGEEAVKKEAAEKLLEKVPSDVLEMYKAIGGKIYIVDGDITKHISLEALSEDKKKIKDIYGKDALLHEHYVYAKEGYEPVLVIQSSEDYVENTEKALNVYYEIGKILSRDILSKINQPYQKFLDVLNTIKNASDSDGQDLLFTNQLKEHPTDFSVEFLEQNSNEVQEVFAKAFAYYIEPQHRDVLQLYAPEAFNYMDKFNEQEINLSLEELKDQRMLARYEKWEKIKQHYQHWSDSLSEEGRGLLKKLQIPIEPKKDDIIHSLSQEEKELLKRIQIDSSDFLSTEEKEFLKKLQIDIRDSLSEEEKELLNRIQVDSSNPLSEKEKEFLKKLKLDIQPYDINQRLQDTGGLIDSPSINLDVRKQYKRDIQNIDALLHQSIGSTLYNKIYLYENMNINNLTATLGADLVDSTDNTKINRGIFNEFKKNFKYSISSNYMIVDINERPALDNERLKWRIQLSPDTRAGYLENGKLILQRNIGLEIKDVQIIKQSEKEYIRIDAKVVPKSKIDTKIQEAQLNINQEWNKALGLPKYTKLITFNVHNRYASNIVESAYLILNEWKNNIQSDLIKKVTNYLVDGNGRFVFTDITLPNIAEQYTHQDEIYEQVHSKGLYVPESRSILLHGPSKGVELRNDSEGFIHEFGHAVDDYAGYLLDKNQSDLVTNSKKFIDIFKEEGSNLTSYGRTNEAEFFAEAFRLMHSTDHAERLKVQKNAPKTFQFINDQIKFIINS
assay.explanation: non-adsorbed VHH ELISA, IPTG-induced VHH-myc, LF-Biotin vs His-SNAP-Halo-Biotin
Give measured Induced ELISA ratio Signal LF/signal His-SNAP-Halo for each item. Keep answers brief.

Example entries and their recorded answers appear below.
{"binder": "clone 6 (VHH) VHH: EVQLQASGGGFVQPGGSLRLSCAASGTTYSSDTMGWFRQAPGKEREFVSAISGRQNWDRYYADSVKGRFTISRDNSKNTVYLQMNSLRAEDTATYYCAYWGHGTYEFDPKSMYWGQGTQVTVSS", "reported.measurement": "7.3 ratio"}
{"binder": "clone 5 (VHH) VHH: EVQLQASGGGFVQPGGSLRLSCAASGTTSFRDTMGWFRQAPGKEREFVSAISWNEGHAHYYADSVKGRFTISRDNSKNTVYLQMNSLRAEDTATYYCASEDMWFNHFYWGQGTQVTVSS", "reported.measurement": "8 ratio"}
{"binder": "clone 10 (VHH) VHH: EVQLQASGGGFVQPGGSLRLSCAASGRTSWSEIMGWFRQAPGKEREFVSAISRYTDDYSYYADSVKGRFTISRDNSKNTVYLQMNSLRAEDTATYYCATYHYQYGGDQTFYWGQGTQVTVSS", "reported.measurement": "3.9 ratio"}

-- ask Look up Induced ELISA ratio Signal LF/signal His-SNAP-Halo: clone 1 (VHH) VHH: EVQLQASGGGFVQPGGSLRLSCAASGDTYRWDNMGWFRQAPGKEREFVSAISGLGNMDSYYADSVKGRFTISRDNSKNTVYLQMNSLRAEDTATYYCAQEEKWMSPQYWGQGTQVTVSS
-- reply 6.3 ratio

Each recorded value in this set is attributed to patent US20200199206A1.
